Values compiled from paper PMC10023680.

B1: GST-tagged ELMO1-RBD (residues 1-113), wild-type [human] / RhoG (residues 1-184) [human] (parent complex)
chain 1: MPPPADIVKVAIEWPGAYPKLMEIDQKKPLSAIIKEVCDGWSLANHEYFALQHADSSNFYITEKNRNEIKNGTILRLTTSPAQNAQQLHERIQSSSMDAKLEALKDLASLSRD
chain 2: not shown

- Variants of: B1
- procedureText: SPR; RhoG in the active GTPγS-bound form; n = 3 independent experiments
observedProperty: Kd
Remember to follow the number with its unit.

Input: # lookup: Kd of chain 1 L21A
Output: 163 µM

Input: # lookup: Kd of chain 1 E13A
Output: 44.3 µM

Input: # lookup: Kd of chain 1 N58A
Output: 10 µM
